The following molecules are listed with their measured Inh. (%) (Inhibition) values.
test.target: HCV NS3 helicase NS3h_1b(con1) (Hepatitis C virus genotype 1b)
Construct: truncated C-terminally His-tagged NS3 proteins lacking the N-terminal protease, called NS3h; His-tag (C); made in house
Sequence (Q9WMX2 1192-1657): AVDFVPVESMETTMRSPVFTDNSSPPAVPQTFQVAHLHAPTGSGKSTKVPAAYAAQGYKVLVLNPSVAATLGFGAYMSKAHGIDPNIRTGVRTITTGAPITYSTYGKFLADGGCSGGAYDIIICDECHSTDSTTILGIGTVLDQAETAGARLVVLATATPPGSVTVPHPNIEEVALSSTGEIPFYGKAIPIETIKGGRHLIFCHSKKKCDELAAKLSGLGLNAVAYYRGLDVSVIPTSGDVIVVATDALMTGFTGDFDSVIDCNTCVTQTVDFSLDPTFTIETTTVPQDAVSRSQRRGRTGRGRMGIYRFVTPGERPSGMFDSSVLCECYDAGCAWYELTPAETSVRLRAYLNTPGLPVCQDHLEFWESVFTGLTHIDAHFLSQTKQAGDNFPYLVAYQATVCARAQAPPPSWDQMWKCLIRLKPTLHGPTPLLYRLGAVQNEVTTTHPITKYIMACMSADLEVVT
procedure.summary: MBHA screen of NCI mechanistic set library at 20 μM (percent inhibition, compound interference)
Type: biochemical
experimental.parameters: compounds at 20 μM, MBHA with DNA substrate; calculated from Equation 1
Output spec: scalar in %, unitless text.

Fill in Inh. (%) (Inhibition) for record `COc1ccc2nc(NC(=O)C(=O)CC(=O)c3ccc(Cl)cc3)sc2c1` −8.7

Fill in Inh. (%) (Inhibition) for record `CC1(C)O[C@@H]2C[C@H]3[C@@H]4C[C@H](F)C5=CC(=O)C=C[C@]5(C)[C@@]4(F)[C@@H](O)C[C@]3(C)[C@]2(C(=O)CO)O1` −1.6

Fill in Inh. (%) (Inhibition) for record CC(C)[Si]1(C(C)C)OCC2OC(n3cnc4c(N)ncnc43)C(N)C2O[Si](C(C)C)(C(C)C)O1 (centres unmarked) −12.1

Fill in Inh. (%) (Inhibition) for record `NC(=S)NN=Cc1ncccc1O` −9.0

Fill in Inh. (%) (Inhibition) for record `O=C(CCc1ccccc1)On1nnc2ccccc2c1=O` 1.3
